From: patent US20220388992A1

# System under test: JAK3 (Homo sapiens, UniProt P52333)
# Construct: purchased Carna 08-046
# Sequence (P52333 795-1124 limits assumed): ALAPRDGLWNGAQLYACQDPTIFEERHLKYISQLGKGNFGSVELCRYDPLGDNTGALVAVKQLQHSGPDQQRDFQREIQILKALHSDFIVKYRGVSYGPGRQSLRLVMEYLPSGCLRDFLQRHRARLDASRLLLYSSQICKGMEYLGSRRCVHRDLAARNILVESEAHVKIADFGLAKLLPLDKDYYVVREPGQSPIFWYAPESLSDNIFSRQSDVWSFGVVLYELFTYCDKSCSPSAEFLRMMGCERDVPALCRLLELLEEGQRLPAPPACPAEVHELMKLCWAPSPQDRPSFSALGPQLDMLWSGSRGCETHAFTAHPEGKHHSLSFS
# Test description: JAK3 kinase inhibition, ADP-Glo luminescence assay
# Type: biochemical
# Particulars: substrate Poly (4:1 Glu, Tyr)
# Text: A drug screening system based on kinases JAK1, JAK2, JAK3, and TYK2 was used to detect the inhibitory ability of small molecule compounds on kinase activity. A kinase undergoes an enzymatic reaction with its substrates IRS 1, IGF1Rtide, and Poly (4:1 Glu, Tyr), consuming ATP to produce ADP, wherein the ADP-Glo reagent and luminescence method were used to detect the amount of the product to reflect the activity of the kinase. 2.1 Experimental Materials and Instruments […]
Listed compounds paired with reported IC50
Kindly provide the numeric value in nM only, without the unit symbol.

Check out these entries, answers already filled in.
{"columns": ["Compound", "Unit abbrev", "IC50"],
 "data": [
  ["CCC(=O)NCc1c[nH]c(-c2n[nH]c3cc(-c4cc(F)c(O)cc4CC)ccc23)n1", "nM", 1.13],
  ["CCc1cc(O)c(F)cc1-c1ccc2c(-c3nc(CNC(=O)C4CCN(C)C4)c[nH]3)n[nH]c2c1 (stereo not shown)", "nM", 9.3],
  ["CCc1cc(O)c(F)cc1-c1ccc2c(-c3nc(CN4CCC(O)CC4)c[nH]3)n[nH]c2c1", "nM", 1.3],
  ["CCc1cc(O)c(F)cc1-c1ccc2c(-c3nc(CNC4CCN(C)C4)c[nH]3)n[nH]c2c1 (stereo not shown)", "nM", 0.85],
  ["CCc1cc(O)c(F)cc1-c1ccc2c(-c3nc(CNC(=O)N4CCN(C)CC4)c[nH]3)n[nH]c2c1", "nM", 0.55]
]}

Entry under test: `CCc1cc(O)c(F)cc1-c1ccc2c(-c3nc(CN4CC5CCC4CC5)c[nH]3)n[nH]c2c1` . Its IC50 was 4.5

Entry under test: `CCc1cc(O)c(F)cc1-c1ccc2c(-c3nc(CNc4ccccn4)c[nH]3)n[nH]c2c1` . Its IC50 was 1.7

Entry under test: `CCc1cc(O)c(F)cc1-c1ccc2c(-c3nc(CNc4cnn(C)c4)c[nH]3)n[nH]c2c1` . Its IC50 was 0.76

Entry under test: CCc1cc(O)c(F)cc1-c1ccc2c(-c3nc(CN4CCC(C#N)C4)c[nH]3)n[nH]c2c1 (stereo not shown) . Its IC50 was 0.67

Entry under test: `CCc1cc(O)c(F)cc1-c1ccc2c(-c3nc(CN4CCC(C#N)CC4)c[nH]3)n[nH]c2c1` . Its IC50 was 2.5

Entry under test: `CCc1cc(O)c(F)cc1-c1ccc2c(-c3nc(CNC(=O)c4cnc(N5CCCCC5)cn4)c[nH]3)n[nH]c2c1` . Its IC50 was 1.41

Entry under test: `CCc1cc(O)c(F)cc1-c1ccc2c(-c3nc(CNS(C)(=O)=O)c[nH]3)n[nH]c2c1` . Its IC50 was 0.912

Entry under test: `CCc1cc(O)c(F)cc1-c1ccc2c(-c3nc(CN(C)C(=O)C4CC4)c[nH]3)n[nH]c2c1` . Its IC50 was 4.5

----------
# System under test: TYK2 (Homo sapiens)
# Sequence (P29597 871-1187 limits assumed): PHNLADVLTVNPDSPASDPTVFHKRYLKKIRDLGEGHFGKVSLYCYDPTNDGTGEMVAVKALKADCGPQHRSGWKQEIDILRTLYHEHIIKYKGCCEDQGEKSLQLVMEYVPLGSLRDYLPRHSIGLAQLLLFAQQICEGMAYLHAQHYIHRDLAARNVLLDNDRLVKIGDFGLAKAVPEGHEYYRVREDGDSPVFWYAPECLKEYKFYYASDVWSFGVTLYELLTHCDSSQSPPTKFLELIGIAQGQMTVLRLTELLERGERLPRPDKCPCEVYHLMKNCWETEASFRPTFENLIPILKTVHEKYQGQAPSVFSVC
# Test description: TYK2 kinase inhibition, ADP-Glo luminescence assay
# Type: biochemical
# Particulars: substrate IRS1
Outcome measure: log10 of IC50 (log10 of the value in nM)
Form field - Quantity: IC50; Unit: nM; Scale: log10

Check out these entries, answers already filled in.
{"columns": ["Molecule", "Outcome measure", "Assay value"],
 "data": [
  ["CCc1cc(O)c(F)cc1-c1ccc2c(-c3nc(CNC(=O)c4cnn(C)c4)c[nH]3)n[nH]c2c1 [Ex-34]", "log10 of IC50", 0.04],
  ["CCc1cc(O)c(F)cc1-c1ccc2c(-c3nc(CNS(C)(=O)=O)c[nH]3)n[nH]c2c1 [MDI-304]", "log10 of IC50", 0.92],
  ["CCc1cc(O)c(F)cc1-c1ccc2c(-c3nc(CNC(=O)c4cnc(N5CCOCC5)cn4)c[nH]3)n[nH]c2c1 [MDI-305]", "log10 of IC50", 1.80],
  ["CCc1cc(O)c(F)cc1-c1ccc2c(-c3nc(CNc4cnn(C)c4)c[nH]3)n[nH]c2c1 [Ex-15]", "log10 of IC50", 0.69]
]}

# value of log10 of IC50, TYK2 (Homo sapiens), item CCc1cc(O)c(F)cc1-c1ccc2c(-c3nc(CN4CCC(C#N)CC4)c[nH]3)n[nH]c2c1 [Ex-11] = 1.26

# value of log10 of IC50, TYK2 (Homo sapiens), item CCc1cc(O)c(F)cc1-c1ccc2c(-c3nc(CNC4CCOC4)c[nH]3)n[nH]c2c1 (centres unmarked) [Ex-32] = 1.06

# value of log10 of IC50, TYK2 (Homo sapiens), item CCc1cc(O)c(F)cc1-c1ccc2c(-c3nc(CN4CCC(O)CC4)c[nH]3)n[nH]c2c1 [Ex-9] = 1.30

# value of log10 of IC50, TYK2 (Homo sapiens), item CCc1cc(O)c(F)cc1-c1ccc2c(-c3nc(CNC(=O)OC)c[nH]3)n[nH]c2c1 [Ex-26] = 0.23

----------
# System under test: JAK2 (Homo sapiens)
# Sequence (O60674 826-1132 limits assumed): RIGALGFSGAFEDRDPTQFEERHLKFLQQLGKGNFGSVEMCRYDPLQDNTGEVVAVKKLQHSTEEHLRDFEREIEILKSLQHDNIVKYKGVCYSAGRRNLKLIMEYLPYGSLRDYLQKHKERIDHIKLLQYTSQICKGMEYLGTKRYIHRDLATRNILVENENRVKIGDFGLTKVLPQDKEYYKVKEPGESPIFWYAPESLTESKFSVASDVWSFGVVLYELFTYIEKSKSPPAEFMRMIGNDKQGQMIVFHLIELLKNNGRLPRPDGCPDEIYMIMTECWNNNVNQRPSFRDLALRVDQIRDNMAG
# Test description: JAK2 kinase inhibition, ADP-Glo luminescence assay
# Type: biochemical
# Design: purchased Carna 08-045
# Particulars: substrate IGF1Rtide
Classification scheme (IC50): lower band = under 0.7 nM, central band = from 0.7 nM up to 1 nM, upper band = 1 nM and over

{"columns": ["Compound", "Class label"],
 "data": [
  ["CCc1cc(O)c(F)cc1-c1ccc2c(-c3nc(CN4CCC(O)CC4)c[nH]3)n[nH]c2c1 [Ex-9]", "upper band"],
  ["CCc1cc(O)c(F)cc1-c1ccc2c(-c3nc(CNC(=O)C4CCC4)c[nH]3)n[nH]c2c1 [Ex-28]", "central band"],
  ["CCc1cc(O)c(F)cc1-c1ccc2c(-c3nc(CNC4CCOC4)c[nH]3)n[nH]c2c1 (stereo not shown) [Ex-32]", "central band"],
  ["CCc1cc(O)c(F)cc1-c1ccc2c(-c3nc(CN4CC5CCC4CC5)c[nH]3)n[nH]c2c1 [Ex-30]", "upper band"],
  ["CCc1cc(O)c(F)cc1-c1ccc2c(-c3nc(CN(C)C(=O)C4CC4)c[nH]3)n[nH]c2c1 [Ex-10]", "upper band"],
  ["CCc1cc(O)c(F)cc1-c1ccc2c(-c3nc(CN4CCC(C#N)C4)c[nH]3)n[nH]c2c1 (stereo not shown) [Ex-12]", "central band"],
  ["CCc1cc(O)c(F)cc1-c1ccc2c(-c3nc(CNC4CCC4)c[nH]3)n[nH]c2c1 [Ex-31]", "upper band"],
  ["CCc1cc(O)c(F)cc1-c1ccc2c(-c3nc(CNC(=O)c4cnc(N5CCCCC5)cn4)c[nH]3)n[nH]c2c1 [MDI-3]", "upper band"],
  ["CCc1cc(O)c(F)cc1-c1ccc2c(-c3nc(CNC(=O)OC)c[nH]3)n[nH]c2c1 [Ex-26]", "lower band"],
  ["CCc1cc(O)c(F)cc1-c1ccc2c(-c3nc(CNc4cnn(C)c4)c[nH]3)n[nH]c2c1 [Ex-15]", "central band"]
]}

Ask: Note: place this compound into its band. Item: CCc1cc(O)c(F)cc1-c1ccc2c(-c3nc(CNC(=O)C4CCN(C)C4)c[nH]3)n[nH]c2c1 (stereo not shown) [Ex-29]
Result: upper band

Ask: Note: place this compound into its band. Item: CCc1cc(O)c(F)cc1-c1ccc2c(-c3nc(CNS(=O)(=O)C4CC4)c[nH]3)n[nH]c2c1 [Ex-18]
Result: upper band

Ask: Note: place this compound into its band. Item: CCc1cc(O)c(F)cc1-c1ccc2c(-c3nc(CNC(=O)N4CCN(C)CC4)c[nH]3)n[nH]c2c1 [Ex-37]
Result: lower band

Ask: Note: place this compound into its band. Item: CCc1cc(O)c(F)cc1-c1ccc2c(-c3nc(CNS(=O)(=O)C(C)C)c[nH]3)n[nH]c2c1 [Ex-25]
Result: upper band

Ask: Note: place this compound into its band. Item: CCC(=O)NCc1c[nH]c(-c2n[nH]c3cc(-c4cc(F)c(O)cc4CC)ccc23)n1 [MDI-301]
Result: lower band

Ask: Note: place this compound into its band. Item: CCc1cc(O)c(F)cc1-c1ccc2c(-c3nc(CN4CC[C@H](O)C4)c[nH]3)n[nH]c2c1 [MDI-306]
Result: lower band

Ask: Note: place this compound into its band. Item: CCc1cc(O)c(F)cc1-c1ccc2c(-c3nc(CNC(=O)N4CCC(O)CC4)c[nH]3)n[nH]c2c1 [Ex-20]
Result: lower band

Ask: Note: place this compound into its band. Item: CCc1cc(O)c(F)cc1-c1ccc2c(-c3nc(CNC(=O)C4CC4)c[nH]3)n[nH]c2c1 [MDI-302]
Result: lower band
